Target: T1, human CD48 (on primary human peripheral blood mononuclear cells) (human, UniProt P09326 27-220)
T1 sequence: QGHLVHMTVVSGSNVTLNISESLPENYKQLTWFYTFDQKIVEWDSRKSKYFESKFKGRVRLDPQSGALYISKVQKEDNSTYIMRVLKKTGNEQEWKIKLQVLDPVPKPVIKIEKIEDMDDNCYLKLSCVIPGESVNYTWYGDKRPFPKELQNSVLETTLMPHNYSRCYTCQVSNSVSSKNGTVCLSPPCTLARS
Test: cell-based or functional assay
Known % Blockade of IFNγ release, MLR; D9 of a selection of binders
// units = %; emit number, no label

# binder, % Blockade of IFNγ release, MLR; D9 / %
records = [
    ("H4H1771P (antibody, human IgG4, V domains shown, Human IgG4 Fc (H4H)) VH: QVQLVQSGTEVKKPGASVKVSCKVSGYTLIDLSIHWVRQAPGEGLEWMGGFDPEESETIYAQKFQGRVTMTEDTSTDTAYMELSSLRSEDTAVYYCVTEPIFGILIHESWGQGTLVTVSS VL: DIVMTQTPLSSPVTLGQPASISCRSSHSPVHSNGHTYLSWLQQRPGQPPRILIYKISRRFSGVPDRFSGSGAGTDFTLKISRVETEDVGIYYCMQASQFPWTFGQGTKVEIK", 32),
    ("H4H1707N (antibody, V domains shown, Human IgG4 Fc (H4H) form of 1707N) VH: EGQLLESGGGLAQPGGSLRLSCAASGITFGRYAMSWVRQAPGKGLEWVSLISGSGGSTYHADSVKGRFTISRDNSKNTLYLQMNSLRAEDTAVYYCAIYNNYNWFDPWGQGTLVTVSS VL: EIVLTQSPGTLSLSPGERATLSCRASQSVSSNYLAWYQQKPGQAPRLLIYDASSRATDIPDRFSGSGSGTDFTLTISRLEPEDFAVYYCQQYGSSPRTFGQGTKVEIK", 60),
]

Ask | Given the binder H4H1775P (antibody, human IgG4, V domains shown, Human IgG4 Fc (H4H)) VH: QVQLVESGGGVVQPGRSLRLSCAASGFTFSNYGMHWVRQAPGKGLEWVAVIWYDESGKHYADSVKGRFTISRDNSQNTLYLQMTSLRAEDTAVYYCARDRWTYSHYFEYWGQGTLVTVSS VL: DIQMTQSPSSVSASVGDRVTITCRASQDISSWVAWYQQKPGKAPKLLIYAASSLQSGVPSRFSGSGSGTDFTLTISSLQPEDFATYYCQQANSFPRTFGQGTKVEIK , what is its reported % Blockade of IFNγ release, MLR; D9?
Reply | 60

Ask | Given the binder H4H1763N (antibody, human IgG4, V domains shown, Human IgG4 Fc (H4H) form of 1763N) VH: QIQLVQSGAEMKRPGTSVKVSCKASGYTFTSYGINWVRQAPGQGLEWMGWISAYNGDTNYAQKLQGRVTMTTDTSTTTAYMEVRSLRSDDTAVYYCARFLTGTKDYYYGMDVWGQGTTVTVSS VL: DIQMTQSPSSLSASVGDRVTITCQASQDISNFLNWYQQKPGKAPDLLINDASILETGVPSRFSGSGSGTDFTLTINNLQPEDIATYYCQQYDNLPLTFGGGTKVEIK , what is its reported % Blockade of IFNγ release, MLR; D9?
Reply | 53

Where do the numbers come from? From patent US20130230533A1.
